From: patent US20210347914A1

Molecular target: T1, Polyhistidine-tagged recombinant human UCH-L1 expressed from E. coli (human, UniProt P09936 1-223, limits assumed)
T1 construct: also called UCH-L1-His; not shown: polyhistidine tag
T1 sequence (P09936 whole entry): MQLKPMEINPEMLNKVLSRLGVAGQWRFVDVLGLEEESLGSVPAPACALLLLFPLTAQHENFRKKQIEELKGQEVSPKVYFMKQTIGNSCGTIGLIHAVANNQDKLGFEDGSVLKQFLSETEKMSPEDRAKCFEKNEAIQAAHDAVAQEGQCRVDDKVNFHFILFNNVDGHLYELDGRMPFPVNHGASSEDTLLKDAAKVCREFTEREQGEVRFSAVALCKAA
Assay: BLI (Octet QKe); His-tagged UCH-L1 on anti-Penta-HIS sensor, antibody in solution
Parameter: koff (s⁻¹)
Could you give me the number in s⁻¹? Just the number is fine.

Can you look up the measured koff of UCH-L1-9 (antibody, V domains shown, also called mouse anti-UCH-L1 antibody UCH-L1-9) VH: EVQLQQSGPELVKPGASVKISCKTSGYTFTEYTMHWVKQSHGKSLDWIGGINPNNGRTSYNQKFKGKATLTVDKSSSTAYMELRSLTSEDSTVYYCARRLGRGFYFDYWGQGTTLTVSS VL: DIVLTQSPASLAVSLGQRATISCRASESVDSYGNNFMHWYQQKPGQPPKLLIYLSSNLESGIPARFSGRGSRTDFTLTINPVEADDVATYYCQQSNGDPYTFGGGTKLEMK for me?
1.01e-05
